Just for reference, the NIST ThermoML archive (doi:10.1021/je700119m) is where these values come from.

# conditionLabel: 298.15 K; 101.33 kPa; Liquid
assayEndpoint: mass density (kg/m3)
Please reply with the bare figure in kg/m3 and do not write the unit itself.

Inquiry: Look up mass density of CCCCn1cc[n+](C)c1.F[P-](F)(F)(F)(F)F [1-butyl-3-methylimidazolium hexafluorophosphate] and report it.
Reply text: 1367.3

Inquiry: Look up mass density of CCO and report it.
Reply text: 785.1

Inquiry: Look up mass density of CCC(C)=O and report it.
Reply text: 799.7

Inquiry: Look up mass density of COS(=O)(=O)[O-].Cn1cc[n+](C)c1 [1,3-dimethylimidazolium methylsulfate] and report it.
Reply text: 1327.2

====

Exercise: state measured refractive index for each of the compounds provided.
# protocolDetails: refractive index (Na D-line) (dimensionless)
# conditionLabel: 298.15 K; 101.33 kPa; Liquid; Standard Abbe refractometry
Response field accepts a number only; no unit should be typed.

Inquiry: Look up refractive index of CCC(C)=O and report it.
Reply text: 1.37618

Inquiry: Look up refractive index of CCCCn1cc[n+](C)c1.F[P-](F)(F)(F)(F)F [1-butyl-3-methylimidazolium hexafluorophosphate] and report it.
Reply text: 1.40937

Inquiry: Look up refractive index of CC(C)O and report it.
Reply text: 1.37496

Inquiry: Look up refractive index of CCO and report it.
Reply text: 1.35929

Inquiry: Look up refractive index of COS(=O)(=O)[O-].Cn1cc[n+](C)c1 [1,3-dimethylimidazolium methylsulfate] and report it.
Reply text: 1.4827
